# testedSystem: RsTSPO (Cereibacter sphaeroides, UniProt Q9RFC8, A136L/A138F/T137A)
# Sequence (Q9RFC8 1-158 A136L/T137A/A138F): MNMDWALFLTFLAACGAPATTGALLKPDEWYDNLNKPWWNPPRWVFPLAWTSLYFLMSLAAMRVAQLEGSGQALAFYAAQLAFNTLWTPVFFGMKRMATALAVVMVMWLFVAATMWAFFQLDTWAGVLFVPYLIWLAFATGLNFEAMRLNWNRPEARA
# assayComment: binding to purified protein
metric: Kd (nM)
# value in nM; strip the unit string

Fill blank: measured Kd of the compound C=CC1=C(C)c2cc3[nH]c(cc4nc(cc5[nH]c(cc1n2)c(C)c5CCC(=O)O)C(CCC(=O)O)=C4C)c(C)c3C=C is ____.
1100
